Target: Matrix metalloproteinase-14 (Homo sapiens)
Test: Inhibition of truncated recombinant MT1-MMP expressed in Escherichia coli JM109 after 1 hr by fluorescence assay
Counter-ions that a name gives are not always drawn.
outcome.measure: IC50 (µM)

CCCCCC/C=C\CCCCCCCCCCCCC#C[C@@H](OS(=O)(=O)O)C(=O)O [CALLYSPONGINOL SULFATE A] = 31.2
CC(CC[C@@H](C)[C@H]1CC[C@H]2[C@@H]3C[C@H](OS(=O)(=O)O)[C@H]4C[C@H](OS(=O)(=O)O)[C@@H](OS(=O)(=O)O)C[C@]4(C)[C@H]3CC[C@]12C)C(C)(C)C (some centres not stated) [HALISTANOL SULFATE] = 25.2
